- Protocol: In vivo metabolism study, rat oral/tail vein injection model
- Details: male, SD, plasma, oral 5 mg/kg vs intravenous 0.5 mg/kg, dose conversion, read-out: F % (bioavailability)
Outcome Measure: bioavailability
Give me the value, and tack the unit on after it.

Quick one: bioavailability for [2H]C([2H])([2H])Oc1cc2c(CCNC(C)=O)cccc2cc1Cl ?
50.9%

----------
- Protocol: In vivo metabolism study, rat oral/tail vein injection model
- Details: male, Sprague-Dawley (SD), plasma, intravenous injection 0.5 mg/kg, read-out: t½ (converted)
Outcome Measure: half-life (min)
Your answer should be a plain number; it is taken to be in min.

Quick one: half-life for COc1ccc2cccc(CCNC(C)=O)c2c1 [Agomelatine, reference compound] ?
20.4

----------
- Target System: human MT1 receptor membrane protein (Homo sapiens (Human), UniProt P48039)
- Sequence (P48039 whole entry): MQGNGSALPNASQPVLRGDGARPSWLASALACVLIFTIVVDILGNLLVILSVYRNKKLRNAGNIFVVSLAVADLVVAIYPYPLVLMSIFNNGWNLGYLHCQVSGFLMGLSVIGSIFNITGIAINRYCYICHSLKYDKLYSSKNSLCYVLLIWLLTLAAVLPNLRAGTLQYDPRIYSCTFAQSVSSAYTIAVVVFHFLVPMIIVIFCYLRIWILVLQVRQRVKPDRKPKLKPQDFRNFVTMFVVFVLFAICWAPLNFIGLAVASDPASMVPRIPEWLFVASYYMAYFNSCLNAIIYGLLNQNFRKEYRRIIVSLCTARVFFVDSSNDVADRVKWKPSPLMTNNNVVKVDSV
- Protocol: MT1 receptor binding test ([3H]-Melotonin competition)
- Details: prescreening, 10^−5 M
Outcome Measure: MT1 binding ratio (I %)

CCC(=O)NCCc1cccc2cc(F)c(OC)cc12 [Example 7] :: 73%
[2H]C([2H])([2H])Oc1cc2c(CCNC(C)=O)cccc2cc1Cl [Example 1] :: 84%
[2H]C([2H])([2H])Oc1cc2c(CCNC(=O)CC)cccc2cc1Cl [Example 5] :: 81%
COc1cc2c(CCNC(C)=O)cccc2cc1Cl [Example 2] :: 84%

# get_value(readout= MT1 binding ratio (I %), system= human MT1 receptor membrane protein (Homo sapiens (Human), UniProt P48039)) for COc1cc2c(CCNC(C)=O)cccc2cc1F [Example 4]
77%

# get_value(readout= MT1 binding ratio (I %), system= human MT1 receptor membrane protein (Homo sapiens (Human), UniProt P48039)) for CCC(=O)NCCc1cccc2cc(Cl)c(OC)cc12 [Example 6]
77%

# get_value(readout= MT1 binding ratio (I %), system= human MT1 receptor membrane protein (Homo sapiens (Human), UniProt P48039)) for [2H]C([2H])([2H])Oc1cc2c(CCNC(C)=O)cccc2cc1F [Example 3]
66%

----------
Form field: MT2 binding ratio (I %) (one value per entry).
- Target System: human MT2 receptor membrane protein (Homo sapiens (Human))
- Sequence (P49286 whole entry): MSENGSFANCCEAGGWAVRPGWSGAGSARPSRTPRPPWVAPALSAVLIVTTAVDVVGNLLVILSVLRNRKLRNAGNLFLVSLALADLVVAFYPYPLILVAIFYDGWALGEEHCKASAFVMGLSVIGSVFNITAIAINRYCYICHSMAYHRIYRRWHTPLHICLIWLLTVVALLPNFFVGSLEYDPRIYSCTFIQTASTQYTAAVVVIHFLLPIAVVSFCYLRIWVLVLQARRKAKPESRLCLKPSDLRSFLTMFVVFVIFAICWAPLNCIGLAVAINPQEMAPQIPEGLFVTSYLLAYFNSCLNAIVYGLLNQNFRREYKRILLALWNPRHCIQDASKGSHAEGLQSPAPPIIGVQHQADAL
- Protocol: MT2 receptor binding test ([3H]-Melotonin competition)
- Details: prescreening, 10^−5 M
Your answer should be a plain number; it is taken to be in %.

CCC(=O)NCCc1cccc2cc(F)c(OC)cc12 :: 69
[2H]C([2H])([2H])Oc1cc2c(CCNC(C)=O)cccc2cc1F :: 57
CCC(=O)NCCc1cccc2cc(Cl)c(OC)cc12 :: 36
COc1cc2c(CCNC(C)=O)cccc2cc1Cl :: 78
[2H]C([2H])([2H])Oc1cc2c(CCNC(C)=O)cccc2cc1Cl :: 98
COc1cc2c(CCNC(C)=O)cccc2cc1F :: 84

Proceeding to the next molecule to report its MT2 binding ratio (I %).
# get_value(readout= MT2 binding ratio (I %), system= human MT2 receptor membrane protein (Homo sapiens (Human))) for [2H]C([2H])([2H])Oc1cc2c(CCNC(=O)CC)cccc2cc1Cl
44

----------
- Protocol: In vivo metabolism study, rat oral/tail vein injection model
- Details: male, Sprague-Dawley (SD), plasma, oral 5 mg/kg vs intravenous 0.5 mg/kg, dose conversion, read-out: F % (bioavailability)
Outcome Measure: bioavailability (%)
Your answer should be a plain number; it is taken to be in %.

Quick one: bioavailability for COc1ccc2cccc(CCNC(C)=O)c2c1 [Agomelatine, reference compound] ?
5.05
